Entries and their TGI (%)
system: Lung cancer LU0387PDX model; test: Pharmacodynamic study on lung cancer LU0387PDX model; format: in vivo, mice; conditions: LU0387 model, 30 mg/kg, P.O, QD * 13 days
readout_name: TGI (%)

* C=CC(=O)Nc1cc(Nc2ncc(C(=O)OC(C)C)c(-c3cn(C)c4ccccc34)n2)c(OC)cc1N(C)CCN(C)C [TAK-788, reference compound] | 68.03
* C=CC(=O)Nc1cc(Nc2nccc(Nc3cc(Cl)c(F)cc3C(C)(C)O)n2)c(OC)cc1N1CC[C@@H](N(C)C)C1 [DZD9008, reference compound] | 32.55
* C=CC(=O)Nc1cc(Nc2ncc(C(=O)OC(C)C)c(-c3cn(C)c4ccccc34)n2)c(OC)cc1N(C)[C@@H]1[C@@H]2CN(C)C[C@@H]21 | 79.01
* C=CC(=O)Nc1cc(Nc2ncc(-c3nnc(C)o3)c(-c3cn(C)c4ccccc34)n2)c(OC)cc1N(C)[C@@H]1[C@@H]2CN(C)C[C@@H]21 | 66.90

====

Entries and their GI50
molecular target: Ba/F3-HER2-A775-G776 ins YVMA (Homo sapiens, UniProt P04626, DUP772-775, cells depend on it); experiment: Cell proliferation inhibition (CellTiter-Glo), HER2 exon 20 insertion engineered cells; assay type: cell-based; conditions: 72 h, CellTiter-Glo; read-out: IC50, Ba/F3-HER2-A775-G776ins YVMA
Sequence (P04626 with tags, fused parts or gaps DUP772-775): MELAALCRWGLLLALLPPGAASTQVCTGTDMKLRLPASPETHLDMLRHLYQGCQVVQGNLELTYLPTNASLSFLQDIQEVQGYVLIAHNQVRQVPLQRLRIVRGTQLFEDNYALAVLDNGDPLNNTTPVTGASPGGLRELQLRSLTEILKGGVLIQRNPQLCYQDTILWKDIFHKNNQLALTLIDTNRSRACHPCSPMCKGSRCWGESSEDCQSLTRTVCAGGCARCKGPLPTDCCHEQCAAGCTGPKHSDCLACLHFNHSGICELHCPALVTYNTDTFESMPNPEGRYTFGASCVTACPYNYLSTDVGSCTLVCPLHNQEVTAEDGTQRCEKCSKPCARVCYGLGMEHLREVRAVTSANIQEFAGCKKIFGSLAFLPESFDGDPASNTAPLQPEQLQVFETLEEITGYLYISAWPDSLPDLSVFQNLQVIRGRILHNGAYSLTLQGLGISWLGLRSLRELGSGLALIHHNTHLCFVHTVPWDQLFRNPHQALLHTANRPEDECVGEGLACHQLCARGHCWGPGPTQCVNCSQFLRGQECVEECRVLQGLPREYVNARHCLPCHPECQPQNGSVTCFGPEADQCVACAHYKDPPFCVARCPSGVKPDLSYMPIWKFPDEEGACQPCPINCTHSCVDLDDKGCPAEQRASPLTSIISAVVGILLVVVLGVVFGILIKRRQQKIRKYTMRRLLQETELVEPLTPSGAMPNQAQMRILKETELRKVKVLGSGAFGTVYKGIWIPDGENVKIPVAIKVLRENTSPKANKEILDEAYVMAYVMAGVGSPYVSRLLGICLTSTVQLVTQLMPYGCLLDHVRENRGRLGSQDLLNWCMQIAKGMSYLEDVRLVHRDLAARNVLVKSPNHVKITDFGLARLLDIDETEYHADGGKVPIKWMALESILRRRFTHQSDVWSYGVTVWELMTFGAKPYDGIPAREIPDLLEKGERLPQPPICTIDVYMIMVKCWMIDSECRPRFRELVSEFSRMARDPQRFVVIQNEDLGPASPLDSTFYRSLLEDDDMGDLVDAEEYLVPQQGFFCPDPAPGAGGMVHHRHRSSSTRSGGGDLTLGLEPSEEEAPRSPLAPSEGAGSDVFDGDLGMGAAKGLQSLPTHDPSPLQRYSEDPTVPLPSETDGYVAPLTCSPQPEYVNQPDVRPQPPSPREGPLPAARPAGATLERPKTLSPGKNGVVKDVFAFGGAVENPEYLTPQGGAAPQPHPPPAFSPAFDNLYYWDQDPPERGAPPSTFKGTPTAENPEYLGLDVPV
readout_name: GI50

* C=CC(=O)Nc1cc(Nc2ncc(-c3nnc(C)o3)c(-c3cn(C)c4ccccc34)n2)c(OC)cc1N(C)[C@@H]1[C@@H]2CN(C)C[C@@H]21 | ≤ 30 nM
* C=CC(=O)Nc1cc(Nc2ncc(C(=O)OC(C)C)c(-c3cn(C)c4ccccc34)n2)c(OC)cc1N(C)[C@@H]1[C@@H]2CN(C)C[C@@H]21 | ≤ 30 nM
* C=CC(=O)Nc1cc(Nc2ncc(C(=O)OC(C)C)c(-c3cn(C)c4ccccc34)n2)c(OC)cc1N(C)CCN(C)C [TAK-788, reference compound] | ≤ 30 nM
* C=CC(=O)Nc1cc(Nc2nccc(Nc3cc(Cl)c(F)cc3C(C)(C)O)n2)c(OC)cc1N1CC[C@@H](N(C)C)C1 [DZD9008, reference compound] | 30 to 100 nM

====

experiment: Solubility test by visual inspection in 18 solvents; type: physicochemical; settings: organic solvent or mixture, thermodynamic from solid, Butanone, room temperature
readout_name: solubility

* C=CC(=O)Nc1cc(Nc2ncc(C(=O)OC(C)C)c(-c3cn(C)c4ccccc34)n2)c(OC)cc1N(C)[C@@H]1[C@@H]2CN(C)C[C@@H]21 [free base crystalline form I] | 2780 to 4440 µg/mL

====

experiment: Solubility test by visual inspection in 18 solvents; assay type: physicochemical; conditions: organic solvent or mixture, thermodynamic from solid, 1,4-dioxane, room temperature
readout_name: solubility

* C=CC(=O)Nc1cc(Nc2ncc(C(=O)OC(C)C)c(-c3cn(C)c4ccccc34)n2)c(OC)cc1N(C)[C@@H]1[C@@H]2CN(C)C[C@@H]21 [free base crystalline form I] | < 270 µg/mL

====

assay: Solubility test by visual inspection in 18 solvents; format: physicochemical; details: organic solvent or mixture, thermodynamic from solid, Acetonitrile, room temperature
readout_name: solubility

- C=CC(=O)Nc1cc(Nc2ncc(C(=O)OC(C)C)c(-c3cn(C)c4ccccc34)n2)c(OC)cc1N(C)[C@@H]1[C@@H]2CN(C)C[C@@H]21 [free base crystalline form I]: 930 to 1010 µg/mL

====

Assay: Solubility test by visual inspection in 18 solvents
Assay type: physicochemical
Details: organic solvent or mixture, thermodynamic from solid, Tetrahydrofuran, room temperature
Text: The solubility of the free base crystalline form I of the compound of Example 1 was crudely determined by visual inspection in 18 solvents at room temperature. The free base crystalline form I was only highly soluble in dichloroethane and dichloromethane and poorly soluble in most of the solvents tested.
readout_name: solubility

• C=CC(=O)Nc1cc(Nc2ncc(C(=O)OC(C)C)c(-c3cn(C)c4ccccc34)n2)c(OC)cc1N(C)[C@@H]1[C@@H]2CN(C)C[C@@H]21 [free base crystalline form I] = 2550 to 3190 µg/mL

These data points were gathered from patent US20260250270A1.
